Test system: PKC-neg-40B-Luc minigene in 293T cells
experiment: Luciferase splicing reporter screen of the LOPAC 1280 library
Assay type: cell-based
test parameters: luciferase fold-increase over the Average Median norm for each plate exclusive of Esrp1 control wells; 293T reporter cells, 24 hours
recorded endpoint: Avg Med norm (fold)
Number in fold, nothing else.

>  <compound>
CC(C)NC[C@H](O)c1ccc(O)c(O)c1.O=C(O)C(O)C(O)C(=O)O [R(−)-Isoproterenol(+)-bitartrate]

>  <unit descriptor>
fold

>  <Avg Med norm>
1.996

$$$$
>  <compound>
OC[C@H]1O[C@@H](n2cnc3c(Nc4ccccc4)ncnc32)[C@H](O)[C@@H]1O

>  <unit descriptor>
fold

>  <Avg Med norm>
1.942

$$$$
>  <compound>
CC(C)NCC(O)c1ccc(O)c(O)c1.Cl (racemic) [(±)-Isoproterenol hydrochloride]

>  <unit descriptor>
fold

>  <Avg Med norm>
1.713

$$$$
>  <compound>
COc1cccc(NC(=O)/C=C/c2ccc(Cl)cc2)c1

>  <unit descriptor>
fold

>  <Avg Med norm>
1.665

$$$$
>  <compound>
C[C@H]1C[C@H]2[C@@H]3CCC4=CC(=O)C=C[C@]4(C)[C@@]3(Cl)[C@@H](O)C[C@]2(C)[C@@]1(O)C(=O)CO

>  <unit descriptor>
fold

>  <Avg Med norm>
1.861

$$$$
>  <compound>
COc1cccc(-c2cc(=O)c3ccccc3o2)c1N

>  <unit descriptor>
fold

>  <Avg Med norm>
1.783

$$$$

Now consider a different compound.
Query: PKC-neg-40B-Luc minigene in 293T cells / Avg Med norm / CNCC(O)c1ccc(O)c(O)c1.Cl (racemic) [(±)-Epinephrine hydrochloride] : value?
Response: 1.714

Values from patent US9127078B2
